Source of measurements: patent US11472781B2

TEST_PROTOCOL: Solubility
Format: physicochemical
CONDITION_NOTES: buffer, pH 7.4, aqueous buffer, kinetic from dmso stock
VALUE_KIND: solubility (µM)
Only the number, expressed in µM, is required.

Problem: Item "O=C(O)c1cccc(-c2cnc(Nc3ccccc3F)o2)c1" has what recorded solubility?
Solution: 56

* * *

Answer each item with its documented half-life.
TEST_PROTOCOL: In vivo PK (I.V./P.O.)
Set-up: species or system mice
CONDITION_NOTES: male, CD1, mouse, plasma; I.V./P.O., 1 and 5 mg/kg, respectively; read-out: plasma half-life (t1/2)

Problem: Tell me the measured half-life of O=C(/C=C\Nc1ccccc1Br)c1ccc2c(c1)OCO2 [Compound 1] , please.
Solution: < 5 min

Problem: Look up half-life for this compound: Cc1cccnc1Nc1nc(-c2ccccn2)cs1 [Compound 2]
Solution: < 5 min
